Catalogue of amyloid nucleation score values
EXPERIMENTAL_DETAILS: amyloid nucleation score (Sup35N fusion, yeast selection) (log enrichment); library NNK2; higher = more nucleation; inactive = no reads after selection;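 further: zero at mode of non-aggregating sequences after 7 days selection at 30°C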
MEASURED_METRIC: amyloid nucleation score

> print(dat)
   macromolecule.sequence           measured.metric  reported
1               HNAEANNVS  amyloid nucleation score    -0.492
2    NQLRVLMTFFWPGMLNTPAV  amyloid nucleation score    -0.089
3       FRNNKLYIRVYRSKWTE  amyloid nucleation score     -1.22

====

EXPERIMENTAL_DETAILS: amyloid nucleation score (Sup35N fusion, yeast selection) (log enrichment); library NNK1; higher = more nucleation; inactive = no reads after selection
MEASURED_METRIC: amyloid nucleation score

> print(dat)
   macromolecule.sequence  reported
1    RYYMGTIWILGEFGSLFWMM      0.06
2    WASTLEDVMRQEKVHLWMIG    -0.242
3               IPDVEGQGG     0.469
4    TKTTVHCFSSMIQYCAAPTL    -0.158

====

EXPERIMENTAL_DETAILS: amyloid nucleation score (Sup35N fusion, yeast selection) (log enrichment); library NNK3; higher = more nucleation; inactive = no reads after selection
MEASURED_METRIC: amyloid nucleation score

> print(dat)
    macromolecule.sequence           measured.metric  reported
 1    YWTANTDYTNVIGYKNTYVH  amyloid nucleation score    -0.337
 2    FLRKGYFNSTSFTDALGGNL  amyloid nucleation score     -1.26
 3    GWSQYGACRVGVWGYRAPYN  amyloid nucleation score  inactive
 4    FLNSKGFTIAGYKNSKWGSR  amyloid nucleation score  inactive
 5    DCSFMPTLYLGPTTFFFWHL  amyloid nucleation score      2.25
 6    SAYRKTHHSCYNVLYVFMMC  amyloid nucleation score      1.49
 7            LKISALTIESMF  amyloid nucleation score  inactive
 8    VVSLESSAVVNGWLWVLAGA  amyloid nucleation score  inactive
 9    NYLGWPDIKCHGYVDSFLFV  amyloid nucleation score  inactive
10    WTRCRLTDFYHSGMSYHHSG  amyloid nucleation score  inactive
11    YCVYQWLSYSVCLFNLMECT  amyloid nucleation score  inactive
12          HLVYWVIHDLYMTI  amyloid nucleation score     0.303
13    ILYLITFAELCWKSRHWHLG  amyloid nucleation score  inactive
14    ELRTNYRKLLSSQAEVGCMV  amyloid nucleation score  inactive
15    RSLDRRSCAMHILRGHQLKT  amyloid nucleation score  inactive
16    LASSQLIYRTSRTCPTLLPL  amyloid nucleation score       1.3
17    VSVVNYKVVHSSAEKVFSFS  amyloid nucleation score  inactive
18    DHLSVWVSRLDTINCLREVG  amyloid nucleation score  inactive
19        NRKNTKHLIFFYVFVT  amyloid nucleation score  inactive

====

EXPERIMENTAL_DETAILS: amyloid nucleation score (Sup35N fusion, yeast selection) (log enrichment); library NNK2; higher = more nucleation; inactive = no reads after selection
MEASURED_METRIC: amyloid nucleation score

> print(dat)
              substance           measured.metric  reported
1              VFGYTSRR  amyloid nucleation score      3.49
2  TLLDNRRGCVMSWRGFLWMR  amyloid nucleation score    -0.363
3  YLPTGELIHHYKTSIVLDSA  amyloid nucleation score    -0.458
4  YFRCTHYTKTGTLVGDISVC  amyloid nucleation score    -0.657

====

EXPERIMENTAL_DETAILS: amyloid nucleation score (Sup35N fusion, yeast selection) (log enrichment); library NNK1; higher = more nucleation; inactive = no reads after selection
Catalogue of amyloid nucleation score values
MEASURED_METRIC: amyloid nucleation score

> print(dat)
   macromolecule.sequence  reported
1      MLGFYKSWCFNFSNMNVH     0.979
2    STNACRPVMAQGDHGLSVLR     0.283
3    MYCFLAKDLRVTEKFWRRGS    -0.448

====

EXPERIMENTAL_DETAILS: amyloid nucleation score (Sup35N fusion, yeast selection) (log enrichment); library NNK3; higher = more nucleation; inactive = no reads after selection
MEASURED_METRIC: amyloid nucleation score

> print(dat)
               substance           measured.metric  reported
 1          YWSCRWGLVLVS  amyloid nucleation score  inactive
 2             LLFQSIVVY  amyloid nucleation score  inactive
 3  CVFKTNVNGLMEEVLSGFKY  amyloid nucleation score  inactive
 4  YLIMSVSYSASTCLIKMAMV  amyloid nucleation score  inactive
 5  WNYRFYPVKRNGSFLSRIVR  amyloid nucleation score     -0.47
 6  MKCLEGMHFIIFLVLALCIY  amyloid nucleation score  inactive
 7  KKRGHEWFVIIKSARGASKR  amyloid nucleation score  inactive
 8  NGVFWGRKSRSYEFWSFYFQ  amyloid nucleation score    -0.052
 9     RMGHWCRVAGSKLLGVV  amyloid nucleation score    -0.131
10                QYRGCG  amyloid nucleation score  inactive
11  TLVGFRALKYIRWTCLAHRF  amyloid nucleation score  inactive
12  KLTGQDLVVGNAFATVVYVE  amyloid nucleation score  inactive
13                NSSSNE  amyloid nucleation score      1.01
14    WTRGNRHVVLQLLGQVSF  amyloid nucleation score  inactive
15               YSSSRLI  amyloid nucleation score  inactive
16  CTDRRVRWGYGFKFRFGHGD  amyloid nucleation score  inactive
17  VLPNYPSFNSSYICWYFWYL  amyloid nucleation score  inactive
18      HVQYLLHKFLTLVQMF  amyloid nucleation score  inactive
19   TSVWVYTVPSFVGNDIDTS  amyloid nucleation score  inactive
20  VHSGQLVTMGMYKLLLSSLC  amyloid nucleation score  inactive
21          YSFRCPGFNYYL  amyloid nucleation score  inactive
22  VGSITVRLWYILECGEEVDC  amyloid nucleation score  inactive
23  VNLITCKQVSFRCQVSGILC  amyloid nucleation score      2.19
24  SFKFMYNSFRSNGDIFSFNR  amyloid nucleation score      2.35
25  YRYHIMVMKAVIDTNSRKGW  amyloid nucleation score  inactive
26  PEPHLKSEKYNCSGDWPLPL  amyloid nucleation score  inactive
27              NTTHNVNV  amyloid nucleation score  inactive
28  SIINLDLTAGHRYFYSSRSR  amyloid nucleation score      2.11
29               TLVIHIN  amyloid nucleation score  inactive
30  CMSRYVDSYFNLAYRDRFLW  amyloid nucleation score     0.451
31  GTGGSVRPHCEFSLRSSYMV  amyloid nucleation score  inactive
32  MCEGAIQQRILLSMKFCCKW  amyloid nucleation score     0.037
33  SFNTLIILSILFVLRQCGTR  amyloid nucleation score  inactive
34                SLSWHK  amyloid nucleation score  inactive
35  DMWKFTRLLFFCDSKRCSAD  amyloid nucleation score  inactive
36           FSYRPSNCYIR  amyloid nucleation score  inactive
37               MSGEFVV  amyloid nucleation score  inactive
38  GIVALCRTCDNRRMRVSVGV  amyloid nucleation score  inactive
39      ASTTVGCVYYTLVLIG  amyloid nucleation score      1.98
40  NSNSGFLVSFLWLSFWNSIS  amyloid nucleation score  inactive
41  NRYGGSAQGHPMWVTTSREW  amyloid nucleation score  inactive
42  FIVPWLFICRVVRNCVDSAV  amyloid nucleation score  inactive
43        LYCTWNSYNSVYAI  amyloid nucleation score      0.66
44              NCSELGSS  amyloid nucleation score  inactive
45               LHWSIDR  amyloid nucleation score  inactive
46  CNFERFALCDYLSVLFNFQR  amyloid nucleation score      1.54
47  SLNILWRSVCFTGCERGYLG  amyloid nucleation score     0.763
48               MFFWMCE  amyloid nucleation score  inactive
49       TVQFMRKAQRQFSGA  amyloid nucleation score  inactive
50  FMSSFISMYFASAFHYAMWH  amyloid nucleation score  inactive
51  HPSQIKKVAFHYVRICSKWL  amyloid nucleation score  inactive
52  VMRIVATQRAGWTGTREPGM  amyloid nucleation score  inactive
53  LRGGKFNQYWIGRHGLSSVS  amyloid nucleation score    -0.562
54  VSRTSVSRRFYCIARMCSPV  amyloid nucleation score  inactive
55                VRHGCG  amyloid nucleation score  inactive
56  PCFLMGPVIPIVFALYKILV  amyloid nucleation score  inactive
57  KYYYVLGMQMYRHLYWTACV  amyloid nucleation score  inactive
58  NHKEWWFTVYLTSGVVCDLG  amyloid nucleation score  inactive
59       SCNVVLRFGAMIYTL  amyloid nucleation score  inactive
